Kindly supply the reported pKd values for the records listed here.
assayTarget: T1, human MSLN-FL-his protein (human, UniProt Q13421 296-580)
T1 construct: made in HEK293E cells, purified on nickel column; also called hMSLN-FL-his; human MSLN full-length protein; not shown: His tag
T1 sequence (Q13421 other isoform, or with tags, fused parts or gaps): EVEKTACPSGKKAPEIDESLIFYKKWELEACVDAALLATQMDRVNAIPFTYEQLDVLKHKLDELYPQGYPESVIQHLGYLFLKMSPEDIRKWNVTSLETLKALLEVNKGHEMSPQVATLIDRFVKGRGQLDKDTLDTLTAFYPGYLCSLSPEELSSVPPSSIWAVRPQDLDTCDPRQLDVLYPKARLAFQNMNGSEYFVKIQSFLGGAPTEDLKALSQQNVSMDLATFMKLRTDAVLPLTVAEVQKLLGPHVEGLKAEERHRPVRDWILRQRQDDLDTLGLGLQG
testDetails: SPR (Biacore), antibody captured on Protein A chip;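 also: flow cell at 25 °C, antigen injected for 240 s at five concentrations from 200 nM downward, dissociation followed up to 600 s, double-referenced, fitted with Langmuir 1:1 model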
Answers are plain numbers, as −log10 of the molar value.

{"binder": "S009-F7.44.20 (antibody, human IgG1, kappa, V domains shown, human-murine chimeric antibody, human IgG1/kappa constant regions) VH: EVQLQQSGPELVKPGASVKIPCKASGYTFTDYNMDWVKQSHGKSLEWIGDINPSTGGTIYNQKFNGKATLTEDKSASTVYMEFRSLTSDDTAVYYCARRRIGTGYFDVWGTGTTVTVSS VL: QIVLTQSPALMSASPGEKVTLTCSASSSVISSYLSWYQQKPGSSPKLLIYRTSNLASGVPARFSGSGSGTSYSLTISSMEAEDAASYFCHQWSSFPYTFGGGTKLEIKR", "endpointName": "pKd", "observedResult": 8.52}

Lookup: What does the data say about its pKd? Entry: S009-F7.53.2 (antibody, human IgG1, kappa, V domains shown, human-murine chimeric antibody, human IgG1/kappa constant regions) VH: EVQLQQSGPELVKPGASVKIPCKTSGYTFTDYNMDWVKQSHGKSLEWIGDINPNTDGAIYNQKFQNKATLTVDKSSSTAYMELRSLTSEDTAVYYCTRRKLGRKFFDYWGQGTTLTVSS VL: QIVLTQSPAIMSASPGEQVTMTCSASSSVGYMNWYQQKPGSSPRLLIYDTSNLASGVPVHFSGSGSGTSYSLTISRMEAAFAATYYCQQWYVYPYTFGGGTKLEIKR
Found: 8.49

Origin of values: patent US20250250357A1
